Property: Inhibition of IP stimulation by 10 nM Agonist: % Inhibition of Max; scope: individual compounds
Molecular target: GPR54 (Homo sapiens, UniProt Q969F8)
Sequence (Q969F8 whole entry): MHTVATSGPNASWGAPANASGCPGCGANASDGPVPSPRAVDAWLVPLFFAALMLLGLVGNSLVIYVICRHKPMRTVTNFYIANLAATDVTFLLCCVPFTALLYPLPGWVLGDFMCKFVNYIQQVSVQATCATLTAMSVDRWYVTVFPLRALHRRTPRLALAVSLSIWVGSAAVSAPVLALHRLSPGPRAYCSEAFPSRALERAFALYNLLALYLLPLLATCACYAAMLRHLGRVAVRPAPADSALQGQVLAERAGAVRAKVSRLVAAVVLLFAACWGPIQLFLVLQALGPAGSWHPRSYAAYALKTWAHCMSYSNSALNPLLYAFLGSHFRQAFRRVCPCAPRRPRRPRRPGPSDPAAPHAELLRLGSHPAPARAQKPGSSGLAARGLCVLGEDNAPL
Assay: Inositol phosphate (IP) antagonism assay: inhibition of 10 nM kisspeptin-10 stimulation of IP in CHO/gpr-54 cells
Type: cell-based
Parameters: G. Vassart, Univ; Brussels
Details: CHO cells; 10 nM kisspeptin-10
Non-standard residues stand in square brackets, D forms with d. Residues, ends and D or L forms follow the SMILES beside them.
Kindly answer with a numeric value in %, unit omitted.

CC(=O)N[C@H](C)C(=O)N[C@@H](CC(N)=O)C(=O)N[C@@H](Cc1c[nH]c2ccccc12)C(=O)N[C@@H](CC(N)=O)C(=O)N1CCC[C@H]1C(=O)N[C@@H](Cc1ccccc1)C(=O)NCC(=O)N[C@H](Cc1c[nH]c2ccccc12)C(=O)N[C@@H](CCCNC(=N)N)C(=O)N[C@@H](Cc1ccccc1)C(N)=O [Peptide 274] (Ac-[dA]NWNPFG[dW]RF-NH2)    73
CC(=O)N[C@H](C)C(=O)N[C@@H](CC(N)=O)C(=O)N[C@@H](Cc1c[nH]c2ccccc12)C(=O)N[C@@H](CC(N)=O)C(=O)NCC(=O)N[C@H](Cc1c[nH]c2ccccc12)C(=O)NCC(=O)N[C@H](Cc1c[nH]c2ccccc12)C(=O)N[C@@H](CCCNC(=N)N)C(=O)N[C@@H](Cc1ccccc1)C(N)=O [Peptide 246] (Ac-[dA]NWNG[dW]G[dW]RF-NH2)    80
CC(C)C[C@H](NC(=O)CNC(=O)[C@H](Cc1ccccc1)NC(=O)CNC(=O)[C@H](CC(N)=O)NC(=O)[C@H](Cc1c[nH]c2ccccc12)NC(=O)[C@H](CC(N)=O)NC(=O)[C@@H](N)Cc1ccc(O)cc1)C(=O)N[C@@H](CCCNC(=N)N)C(=O)N[C@@H](Cc1ccccc1)C(N)=O [Peptide 208] (H-YNWNGFGLRF-NH2)    55
CC(C)C[C@@H](NC(=O)CNC(=O)[C@H](Cc1ccccc1)NC(=O)CNC(=O)[C@H](CC(N)=O)NC(=O)[C@H](Cc1c[nH]c2ccccc12)NC(=O)[C@H](CC(N)=O)NC(=O)[C@@H](N)Cc1ccc(O)cc1)C(=O)N[C@@H](CCCNC(=N)N)C(=O)N[C@@H](Cc1ccccc1)C(N)=O [Peptide 209] (H-YNWNGFG[dL]RF-NH2)    61

In the following, a different compound is considered.
Problem: Recorded Inhibition of IP stimulation by 10 nM Agonist: % Inhibition of Max of CC(=O)N[C@@H](Cc1ccc(O)cc1)C(=O)N[C@@H](CC(N)=O)C(=O)N[C@@H](Cc1c[nH]c2ccccc12)C(=O)N[C@@H](CC(N)=O)C(=O)N[C@H](Cc1c[nH]c2ccccc12)C(=O)N[C@@H](Cc1ccccc1)C(=O)NCC(=O)N[C@H](Cc1c[nH]c2ccccc12)C(=O)N[C@@H](CCCNC(=N)N)C(=O)N[C@@H](Cc1ccccc1)C(N)=O [Peptide 229] (Ac-YNWN[dW]FG[dW]RF-NH2) , please.
Result: 68
